All figures here come from PubChem BioAssay (Tox21).

assayRemarks: qHTS assay to identify small molecule that activate the aryl hydrocarbon receptor (AhR) signaling pathway - cell viability counter screen (AID 743086); also: nearly all actives have a fitted effect of over 45% in size
conditionDetails: HepG2-AhR-luc viability, CellTiter-Fluor, 24 h; series mostly up to 70.3 µM
Inconclusive results are not listed. Active and inactive are the calls of the source. Calls follow the shape of the dose curve; as a rule, active = well fitted cell-killing curve with a large enough effect in the repeat runs; inconclusive = weak or mixed curves, or effect the other way; inactive = flat fitted curve, though single readings scatter. Non-standard residues stand in square brackets, D forms with d. Residues, ends and D or L forms follow the SMILES beside them. pGlu = O=C1CC[C@@H](C(=O)O)N1
Entry note: the call must match one of 1 for active, -1 for inactive

Recorded results for 5 molecules are shown here.
INSERT INTO measurements (molecule, assignedclass) VALUES
  ('CCCCCCCCCCCCCCCCCC[N+](C)(C)CCC[Si](OC)(OC)OC', -1),
  ('COc1ccc(C[C@H](N)C(=O)N[C@H]2[C@@H](O)[C@H](n3cnc4c(N(C)C)ncnc43)O[C@@H]2CO)cc1', 1),
  ('CC[C@H](C)[C@H](NC(=O)[C@H](Cc1ccccc1)NC(=O)[C@H](C)NC(=O)[C@H](CC(=O)O)NC(=O)[C@H](CCCCN)NC(=O)[C@H](CO)NC(=O)[C@@H]1CCCN1C(=O)[C@@H]1CCC(=O)N1)C(=O)NCC(=O)N[C@@H](CC(C)C)C(=O)N[C@@H](CCSC)C(N)=O ([pGlu]PSKDAFIGLM-NH2)', -1),
  ('NCCCC[C@H](N)C(=O)O', -1),
  ('CCCCCCCCCCCCCCCC(=O)O[C@@H]1CC(C)=C(/C=C/C(C)=C/C=C/C(C)=C/C=C/C=C(C)/C=C/C=C(C)/C=C/C2=C(C)C[C@@H](OC(=O)CCCCCCCCCCCCCCC)CC2(C)C)C(C)(C)C1', -1);

Q: Which outcome did this test record for the molecule CCC(=O)OCC(=O)[C@@]1(OC(=O)CC)[C@@H](C)C[C@H]2[C@@H]3CCC4=CC(=O)C=C[C@]4(C)[C@@]3(F)[C@@H](O)C[C@@]21C ?
Ans: -1

Q: Outcome logged for O=C(Nc1ccc(/C=C/c2ccc(NC(=O)c3cc(S(=O)(=O)O)c4cccnc4c3O)cc2S(=O)(=O)O)c(S(=O)(=O)O)c1)c1cc(S(=O)(=O)O)c2cccnc2c1O in this assay:
Ans: -1

Q: I'd appreciate the recorded outcome for CC(=O)Oc1cccc(C(=O)O)c1OC(C)=O from this test.
Ans: -1

Q: Given O=C(O)c1cccc(/C=C2/C[C@@H]3[C@@H](/C=C/[C@@H](O)C4CCCCC4)[C@H](O)C[C@@H]3O2)c1 , state the outcome it received in this test.
Ans: -1

Q: What is the recorded call for this molecule in the test? CC(C)[C@@H](C)/C=C/[C@@H](C)[C@H]1CC[C@H]2/C(=C/C=C3\C[C@@H](O)CC[C@@H]3C)CCC[C@]12C
Ans: -1

Q: Dear colleague, could you share the recorded outcome for C=C1C(=C/C=C2\CCC[C@]3(C)[C@@H]([C@H](C)/C=C/[C@H](C)C(C)C)CC[C@@H]23)C[C@@H](O)C[C@@H]1O when you have a moment?
Ans: -1

Q: Tell me the recorded outcome of this test for CCC(=O)OCC(=O)[C@@]1(OC(=O)CC)[C@@H](C)C[C@H]2[C@@H]3CCC4=CC(=O)C=C[C@]4(C)[C@@]3(Cl)[C@@H](O)C[C@@]21C .
Ans: -1

Q: Which outcome was entered for the molecule CC[N+](C)(C)Cc1ccccc1Br in this test?
Ans: -1

Q: Please state the recorded outcome for this molecule: CCOc1ccc(N=C(C)Nc2ccc(OCC)cc2)cc1
Ans: -1
